# MEASUREMENT PROTOCOL: in vivo
# TEST CONDITIONS: male, C57BL/6, mouse, iv, 5 mg/kg
ASSAY ENDPOINT: AUC(0-inf) (ng·h/mL)
// note: answer is a bare numeric in ng·h/mL

Problem: GET /values?readout=AUC(0-inf)&item= `COc1cc(C(=O)O[C@@H]2Cc3c(O)cc(O)cc3O[C@H]2c2cc(O)c(O)c(O)c2)c(F)c(O)c1O`
Result: 348

###

# MEASUREMENT PROTOCOL: in vivo
# TEST CONDITIONS: male, C57BL/6, mouse, iv, 5 mg/kg
ASSAY ENDPOINT: Vd
Write the figure, then the unit, nothing else.

Problem: What value of Vd has been recorded for this entry: `COc1cc(C(=O)O[C@@H]2Cc3c(O)cc(O)cc3O[C@H]2c2cc(O)c(O)c(O)c2)c(F)c(O)c1O`
Result: 22 L/kg

###

# MEASUREMENT PROTOCOL: in vivo
# TEST CONDITIONS: male, C57BL/6, mouse, po, 30 mg/kg
ASSAY ENDPOINT: Vd/F (L/kg)
Provide only the numeric value, understood in L/kg.

Problem: Item `COc1cc(C(=O)O[C@@H]2Cc3c(O)cc(O)cc3O[C@H]2c2cc(O)c(O)c(O)c2)c(F)c(O)c1O` has what recorded Vd/F?
Result: 602

###

# MEASUREMENT PROTOCOL: in vivo
# TEST CONDITIONS: male, C57BL/6, mouse, inhaled or intranasal, 10 mg/kg
ASSAY ENDPOINT: AUC(0-inf) (ng·h/mL)
Form entry: value (ng·h/mL) — number only.

Problem: Could you share which AUC(0-inf) value was measured for COc1cc(C(=O)O[C@@H]2Cc3c(O)cc(O)cc3O[C@H]2c2cc(O)c(O)c(O)c2)c(F)c(O)c1O [Compound 68] ?
Result: 716

###

Listing of recorded IC50 by entry.
# STUDY SYSTEM: DYRK1A (HT-497, 6×His tagged rat truncated DYRK1A isoform X1 residues 1-497) (Rattus norvegicus (Rat))
# MEASUREMENT PROTOCOL: DYRK1A ELISA assay (HT-PRD phosphorylation)
# TEST CONDITIONS: 100 µM ATP, 5 ng HT-497, 30 min at 30° C.
# Procedure: Compounds of Table 1, above, were examined in vitro for activity against DYRK1A, DYRK1B, DYRK2 via an ELISA assay. DYRK1A assay. […] After blocking, wells were washed extensively with dilution buffer before subjecting to phosphorylation. […] The readings were then recorded for subsequent IC50 calculation. […] Dilution factors for both mAb 3D3 and secondary antibody were pre-determined for each batch of antibody to ensure that neither antibody was limiting in the assay. […]

# COMPOUND STRING, RECORDED MEASUREMENT
rows = [
    ("Cc1cc(O)c(O)cc1[C@@H]1Oc2cc(O)cc(O)c2C[C@H]1OC(=O)c1cc(O)c(O)c(O)c1F", "> 100 nM"),
]

Problem: Quick one: IC50 of `Nc1ncc(C(=O)O[C@H]2Cc3c(O)cc(O)cc3O[C@@H]2c2ccc(O)c(O)c2)cc1O` ?
Result: > 1000 nM

Problem: Any idea what its IC50 is? The molecule is `O=C(O[C@@H]1Cc2c(O)cc(O)cc2O[C@H]1c1cc(O)c(O)c(O)c1F)c1cc(O)c(O)c(O)c1`
Result: < 100 nM

Problem: So what does the record say about IC50 for `O=C(N[C@H]1Cc2c(O)cc(O)cc2O[C@@H]1c1cc(O)c(O)c(O)c1)c1cc(O)c(O)c(O)c1` ?
Result: > 100 nM

Problem: Entry under review: `O=C(O[C@@H]1Cc2c(O)cc(O)cc2O[C@H]1c1cc(O)c(O)c(O)c1)c1cc(O)c(O)c(OC(F)F)c1` . Reported IC50?
Result: > 100 nM

Just for reference, patent US20240336588A1 is where these values come from.
